- experimental_system: T1, biotinylated recombinant mouse IL-12Rβ2 (produced in-house) (mouse, UniProt P97378 24-637, randomly biotinylated)
- T1 construct: also called mIL-12RB2; mouse IL-12RB2
- T1 sequence: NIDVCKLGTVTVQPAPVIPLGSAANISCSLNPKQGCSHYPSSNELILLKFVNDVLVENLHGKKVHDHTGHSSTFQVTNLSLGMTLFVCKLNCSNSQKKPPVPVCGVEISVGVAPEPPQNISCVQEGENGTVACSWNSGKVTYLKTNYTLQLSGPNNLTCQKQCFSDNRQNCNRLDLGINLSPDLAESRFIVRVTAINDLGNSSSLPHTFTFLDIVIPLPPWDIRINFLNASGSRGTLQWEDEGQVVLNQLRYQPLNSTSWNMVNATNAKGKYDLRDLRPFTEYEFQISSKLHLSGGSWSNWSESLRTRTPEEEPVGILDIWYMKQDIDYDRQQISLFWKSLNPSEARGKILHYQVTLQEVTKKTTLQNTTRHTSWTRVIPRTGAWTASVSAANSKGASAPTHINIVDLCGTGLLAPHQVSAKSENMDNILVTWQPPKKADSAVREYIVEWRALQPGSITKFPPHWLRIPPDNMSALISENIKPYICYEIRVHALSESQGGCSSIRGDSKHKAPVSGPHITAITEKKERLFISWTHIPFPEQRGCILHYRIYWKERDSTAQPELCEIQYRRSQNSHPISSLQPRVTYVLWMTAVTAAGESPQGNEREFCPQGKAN
- protocol_description: ELISA, periplasmic extract on biotinylated mouse IL-12Rβ2; control streptavidin-coated blocked wells
assay_endpoint: ELISA binding mIL-12RB2/control

Would you please look over these solved cases?
anti-IL-12Rβ2 VHH clone 2CAM88 (VHH, Tested as periplasmic extract; CDR3 group 17) VHH: QVQLQESGGGLVPPGDSLRLSCAASGRTFSSYTMGWFRQAPGKEREFVARISQDGGSTYYADSMKGRFTVARDNAKNTVYLQMNSLKPEDTAVYYCAADMIKWGLRVGVDSFKYWGQGTQVTVSS = 62.3 ratio to control
anti-IL-12Rβ2 VHH clone 2CAMS29 (VHH, Tested as periplasmic extract; CDR3 group 54; also called 20534) VHH: QVQLQESGGGLVQAGGSLRLSCAASGLTSSTYVIGWFRQAPGKEREFVAAIMLSGGTTIYADSLKGRCTIYKDNAKNTVYLQMNSLKLEDTAVYYCASGLIYRYSDFPRSQKYNFWGQGTQVTVSS = 6.24 ratio to control
anti-IL-12Rβ2 VHH clone 2CAM67 (VHH, Tested as periplasmic extract; CDR3 group 28; also called 20494) VHH: QVQLQESGGGEVQAGGSLRLSCVASGRTFSVYTTGWFRQAPGKEREFVAGMSGTRTYYADSVKGRFTISRDNAKNTVYLQMNSLKPDDTAVYYCAERRYGGPSLVWDEYDYRGQGTQVTVSS = 7.74 ratio to control
anti-IL-12Rβ2 VHH clone 2CRM88 (VHH, Tested as periplasmic extract; CDR3 group 18; also called 20453) VHH: QVQLQESGGGLVQAGGSLRLSCQASGRTFSNYRMGWFRQAPGKEREFVAGINWDGGHTYYTDSVKGRFTISRDNAKNTVYLQMNSLKPEDTAVYQCAVRVREYGSSRYEDQFDYWGQGTQVTVSS = 3.73 ratio to control
anti-IL-12Rβ2 VHH clone 3CAMS63 (VHH, Tested as periplasmic extract; CDR3 group 26; also called 20552) VHH: QVQLQESGGGLVQAGGSLRLSCAASGRTFSNYAMGWFRQAPGKEREFVAAINRSGTTLYVDSVKGRFTISRDNAKNTVALQMNSLKPEDTAVYYCVAGMPFSYSDYPRDSKYDYWGQGTQVTVSS = 9.78 ratio to control

Reported ELISA binding mIL-12RB2/control ( anti-IL-12Rβ2 VHH clone 3CAM65 (VHH, Tested as periplasmic extract; CDR3 group 49; also called 20513) VHH: QVQLQESGGGLVQAGGSLRLSCAPSGRTFTTYVMGWFRQAPGKEREFVAHISWSGGRTYYADSVKGRFTISRDNAKNTSYLQMNSLKPEDTAVYYCAAARSDAVRIGYAEGYEYWGQGTQVTVSS ) = 5.98 ratio to control

binder anti-IL-12Rβ2 VHH clone 2CAMS52 (VHH, Tested as periplasmic extract; CDR3 group 55; also called 20535) VHH: QVQLQESGGGLVQPGASLRLSCATSGPTLSTYAMGWFRQAPGKEREVVATISWSGGRVTYVDSVKGRFTISRDNAKNTAYLQMNRLRPDDTAVYTCAARESDYGAYDYWGQGTQVTVSS , ELISA binding mIL-12RB2/control observed: 6.41 ratio to control

Measured ELISA binding mIL-12RB2/control of anti-IL-12Rβ2 VHH clone 2CRM42 (VHH, Tested as periplasmic extract; CDR3 group 18; also called 20449) VHH: QVQLQESGGGLVQPGESLRLSCQASGRTFSNYRMGWFRQAPGKEREFVAGINWDGGHTYYTDSVKGRFTISRDNAKNTVYLQMNSLKPEDTAVYQCAVRVREYGSSRYEDQFDYWGQGTQVTVSS : 6.09 ratio to control
